- assay: Metabolic stability in mouse liver microsomes assessed as half life at 1 uM preincubated for 10 mins followed by NADPH addition and further incubated upto 60 mins by LC-MS/MS analysis
- Assay type: ADME, Microsome
- experimental_context: time 70 min
measured_property: half-life at 1 µM (min)

> print(dat)
                                 mol.smiles  measured.property  quantitative.result
1  CS(=O)(=O)c1cc([N+](=O)[O-])c2sc(N3CCN(CC4CCCCC4)C4(CC4)C3)nc(=O)c2c1  half-life at 1 µM                 33.5
2  CS(=O)(=O)c1cc([N+](=O)[O-])c2sc(N3CCN(CC4CCCCC4)CC3)nc(=O)c2c1  half-life at 1 µM                 42.1
3  CS(=O)(=O)c1cc([N+](=O)[O-])c2sc(N3CCN(CC4CCC(F)(F)CC4)CC3)nc(=O)c2c1  half-life at 1 µM                   59
4  O=c1nc(N2CCN(CC3CCCCC3)CC2)sc2c([N+](=O)[O-])cc(C(F)(F)F)cc12  half-life at 1 µM                 31.5
